Please provide measured %Inh for the entries that follow.
Tested on: RPS6KA5(Kin.Dom.1-N-terminal)
Conditions: concentration: 1 μM, replicates: in singlicate; n = 1;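 further: KINOMEscan kinase panel screen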

The compound listed as COc1ccc(Nc2nccc(N3CCC(NC(=O)C(C)c4ccc(Cl)cc4)CC3)n2)cc1 (stereo not drawn) shows %Inh equal to 3%

The compound listed as `CCn1c(-c2ccccc2)nc2cnccc21` shows %Inh equal to 3%

The compound listed as `Cc1ccccc1Cn1ccn2c(=O)cc(N3CCOCC3)nc12` shows %Inh equal to 12%

The compound listed as `O=C(Nc1n[nH]c2nc(-c3cccs3)c(Br)cc12)C1CCCC1` shows %Inh equal to 4%

The compound listed as CC(=O)c1cccc(NC(=O)NC2CCN(c3ccnc(Nc4ccc(F)cc4)n3)C2)c1 (stereo not drawn) shows %Inh equal to 0%

The compound listed as `COc1cccc(NC(=O)Nc2ccc(C)c(-c3ccc(C(=O)Nc4ccncc4)cc3)c2)c1` shows %Inh equal to 12%

The compound listed as `CSc1ccc(-c2nc3n(c2-c2ccncc2)CCC3)cc1` shows %Inh equal to 5%

The compound listed as COc1ccc(Nc2nccc(N3CCC(NC(=O)C(C)c4ccc(Cl)cc4)C3)n2)cc1 (stereo not drawn) shows %Inh equal to 21%

The compound listed as COC(=O)C(Cc1ccccc1)NC(=O)NC1CCN(c2ccnc(Nc3ccc(F)cc3)n2)C1 (stereo not drawn) shows %Inh equal to 1%

The compound listed as `Nc1ncnc2occ(-c3ccc4c(c3)CCN4C(=O)Cc3cc(F)ccc3F)c12` shows %Inh equal to 2%

The compound listed as `Cc1ccc(NC(=O)c2ccc(Cl)cc2)cc1-c1ccc(C(=O)Nc2ccncc2)cc1` shows %Inh equal to 17%

The compound listed as `CC[C@@H]1CO[C@H](C(=O)Nc2ccccc2)CN1c1cc(-c2ccc3c(N)n[nH]c3c2)nc(NC)n1` shows %Inh equal to 28%

The compound listed as `COc1ccc(CSc2nnc(-c3ccc4nccn4c3)o2)cc1C(F)(F)F` shows %Inh equal to 22%

The compound listed as `COc1ccc(CSc2nnc(-c3ccc4c(c3)CCO4)o2)cc1` shows %Inh equal to 0%

The compound listed as `CN1c2ccc(-c3ccc(C(N)=O)cc3)cc2-c2[nH]ncc2S1(=O)=O` shows %Inh equal to 0%

The compound listed as `CCc1ccc(-c2ccc3c(c2)-c2n[nH]cc2S(=O)(=O)N3C)cc1` shows %Inh equal to 0%

The compound listed as `Cc1ccc(NC(=O)Nc2ccc(Cl)cc2)cc1-c1ccc(C(=O)Nc2ccncc2)cc1` shows %Inh equal to 17%

The compound listed as `COc1ccc(Nc2nccc(-c3ccc(NC(=O)c4cc5cc(F)ccc5[nH]4)cc3)n2)cc1` shows %Inh equal to 0%

====

Please provide measured %Inh for the entries that follow.
Test system: DCAMKL2
Construct: gene DCLK2
Details: concentration: 1 μM, replicates: in singlicate; n = 1
Numbers only here, please. The scale is %.

So the reported %Inh for Cc1c(Cn2c3ccccc3n3c(=O)cc(N4CCOCC4)nc23)cccc1C(F)(F)F [GSK2306394] , on DCAMKL2, turned out to be 0

So the reported %Inh for `CC(=O)c1c(C)c2cnc(Nc3ccn(C)n3)nc2n(C2CCCC2)c1=O` , on DCAMKL2, turned out to be 100

So the reported %Inh for `COc1ccc(CSc2nnc(-c3ccc4nccn4c3)o2)cc1C(F)(F)F` , on DCAMKL2, turned out to be 0

So the reported %Inh for Fc1ccc(-c2nc3n(c2-c2ccncc2)CCS3)cc1 [GI98581] , on DCAMKL2, turned out to be 21

So the reported %Inh for CC(C)c1ccc(O)cc1Nc1ccnc2ccc(C(F)(F)F)cc12 [GW482059] , on DCAMKL2, turned out to be 0

====

System: SYK
Conditions: concentration: 1 μM, replicates: in singlicate; n = 1
Response field label: string, one of MET (%Inh strictly below 10%) or NOT MET.

In: Please state whether %Inh is below 10% for Cc1ccc(NC(=O)c2ccc(Cl)cc2)cc1-c1ccc(C(=O)Nc2ccncc2)cc1 [GSK1398467]
Out: MET

In: Please state whether %Inh is below 10% for Cc1cnc(N)c(/C=C/c2cncc(C(=O)NCCc3ccc(Cl)cc3Cl)c2)c1.Cl [GSK190937]
Out: NOT MET

In: Please state whether %Inh is below 10% for `CNC(=O)c1ccc(C)c(-n2c(C)cc(OCc3ccc(F)cc3F)c(Br)c2=O)c1`
Out: NOT MET

In: Please state whether %Inh is below 10% for COC(=O)c1cccc(NC(=O)NC2CCN(c3ccnc(Nc4ccc(F)cc4)n3)C2)c1 (stereo not drawn) [GSK1379725]
Out: NOT MET

In: Please state whether %Inh is below 10% for `CCc1ccc(-c2ccc3c(c2)-c2n[nH]cc2S(=O)(=O)N3C)cc1`
Out: NOT MET

In: Please state whether %Inh is below 10% for CNc1cc(-c2ccc3c(N)n[nH]c3c2)nc(N)n1 [GSK2224810]
Out: MET

In: Please state whether %Inh is below 10% for `CC(=O)c1c(C)c2cnc(Nc3ccc(N4CCNCC4)cn3)nc2n(C2CCCC2)c1=O`
Out: MET

In: Please state whether %Inh is below 10% for `CC(=O)c1c(C)c2cnc(Nc3ccn(C)n3)nc2n(C2CCCC2)c1=O`
Out: MET

In: Please state whether %Inh is below 10% for CCn1c(-c2ccccc2)nc2cnccc21 [SB-733416]
Out: NOT MET

====

Tested on: MAP4K3
Conditions: concentration: 1 μM, replicates: in singlicate; n = 1
Please provide measured %Inh for the entries that follow.
Numbers only here, please. The scale is %.

The molecule listed as COc1cccc(C2=C(Nc3cc(Cl)c(O)c(Cl)c3)C(=O)NC2=O)c1 [SB-390767] shows %Inh equal to 0

The molecule listed as NS(=O)(=O)c1cccc(N/C=C2\C(=O)Nc3ccc(S(=O)(=O)Cc4c(Cl)cccc4Cl)cc32)c1 [GSK398099] shows %Inh equal to 19

The molecule listed as COC(=O)c1cccc(NC(=O)NC2CCN(c3ccnc(Nc4ccc(F)cc4)n3)C2)c1 (stereo not drawn) [GSK1379725] shows %Inh equal to 0

====

Tested on: DAPK3
Details: concentration: 1 μM, replicates: in singlicate; n = 1
Please provide measured %Inh for the entries that follow.
Numbers only here, please. The scale is %.

The compound listed as CC(=O)c1cccc(NC(=O)NC2CCN(c3ccnc(Nc4ccc(F)cc4)n3)C2)c1 (stereo not drawn) shows %Inh equal to 26

The compound listed as `O=C1NC(=O)C(c2ccc(Cl)cc2)=C1Nc1ccc(O)cc1` shows %Inh equal to 0

The compound listed as `CCCCc1nn2ncccc2c1-c1ccnc(NC2CC2)n1` shows %Inh equal to 12

====

Please provide measured %Inh for the entries that follow.
Tested on: MRCKA
Conditions: concentration: 1 μM, replicates: in singlicate; n = 1
Numbers only here, please. The scale is %.

So the reported %Inh for `O=c1cc(N2CCOCC2)nc2n(Cc3cccc(Cl)c3Cl)c3ccccc3n12` , on MRCKA, turned out to be 24

So the reported %Inh for `COc1ccc(Nc2nccc(-c3ccc(NC(=O)c4cc5cc(F)ccc5[nH]4)cc3)n2)cc1` , on MRCKA, turned out to be 17

So the reported %Inh for `Cc1ccc(NC(=O)Nc2ccc(Cl)cc2)cc1-c1ccc(C(=O)Nc2ccncc2)cc1` , on MRCKA, turned out to be 16

So the reported %Inh for `COc1nccc(-c2c(-c3ccc(F)cc3)ncn2CCCN2CCOCC2)n1` , on MRCKA, turned out to be 12

So the reported %Inh for `Fc1ccc(-c2nn3cccc(F)c3c2-c2ccncc2)cc1` , on MRCKA, turned out to be 23

So the reported %Inh for `Cc1c(Cn2c3ccccc3n3c(=O)cc(N4CCOCC4)nc23)cccc1C(F)(F)F` , on MRCKA, turned out to be 0

So the reported %Inh for `Cn1cncc1-c1cc2c(Nc3ccc(OCc4ccccc4)cc3)ncnc2cn1` , on MRCKA, turned out to be 21

So the reported %Inh for `COc1ccc2cc(-c3nc(-c4ccccc4C(C)C)[nH]c3-c3ccncc3)ccc2c1` , on MRCKA, turned out to be 4

So the reported %Inh for `O=C1NC(=O)C(c2ccc(Cl)cc2)=C1Nc1cccc(Cl)c1` , on MRCKA, turned out to be 0

So the reported %Inh for COC(=O)c1cccc(NC(=O)NC2CCN(c3ccnc(Nc4ccc(OC)cc4)n3)C2)c1 (stereo not shown) , on MRCKA, turned out to be 24

So the reported %Inh for `CS(=O)(=O)CCNCc1nc(-c2ccc3ncnc(Nc4ccc5c(cnn5Cc5ccccc5)c4)c3c2)cs1.Cl.Cl` , on MRCKA, turned out to be 17

So the reported %Inh for `COc1cccc(NC(=O)Nc2ccc(C)c(-c3ccc(C(=O)Nc4ccncc4)cc3)c2)c1` , on MRCKA, turned out to be 13

So the reported %Inh for `COc1cccc(C2=C(Nc3cc(Cl)c(O)c(Cl)c3)C(=O)NC2=O)c1` , on MRCKA, turned out to be 0
